Would you kindly list IC50 values (µM), creatine kinase activity assay for each of these binders?
# Tested System: creatine kinase
# Measurement Notes: cell-based or functional assay
Numbered stars: 1 amine (or outer) side, 2 acyl side, 3 side chain; on linkers, the order of the positions; unused ones are H or OH. Square brackets hold non-standard residues; d marks the D form. Ends that are not written are not given here. * marks the point of attachment. O(CA) = ornithine chloroamidine, N=C(CCl)NCCC[C@H](N[*:1])C(=O)[*:2]; Orn(fluoroacetimidoyl) = N=C(CF)NCCC[C@H](N)C(=O)O; Moc = COC(=O)*
Give bare numbers, in µM.

Solved entries (count: 4):
Ac-YD[O(CA)]GS [CXP5.2-081]; 1000
Ac-KFD[Orn(fluoroacetimidoyl)]DFI-NH2 (SMILES CC[C@H](C)[C@H](NC(=O)[C@H](Cc1ccccc1)NC(=O)[C@H](CC(=O)O)NC(=O)[C@H](CCCNC(=N)CF)NC(=O)[C@H](CC(=O)O)NC(=O)[C@H](Cc1ccccc1)NC(=O)[C@H](CCCCN)NC(C)=O)C(N)=O) [0743-58FA]; 800
Moc-TD[Orn(fluoroacetimidoyl)]GS-OMe (SMILES COC(=O)N[C@H](C(=O)N[C@@H](CC(=O)O)C(=O)N[C@@H](CCCNC(=N)CF)C(=O)NCC(=O)N[C@@H](CO)C(=O)OC)[C@@H](C)O) [CXP5-101]; 780
Ac-KWH[Orn(fluoroacetimidoyl)]DFF-NH2 (SMILES CC(=O)N[C@@H](CCCCN)C(=O)N[C@@H](Cc1c[nH]c2ccccc12)C(=O)N[C@@H](Cc1c[nH]cn1)C(=O)N[C@@H](CCCNC(=N)CF)C(=O)N[C@@H](CC(=O)O)C(=O)N[C@@H](Cc1ccccc1)C(=O)N[C@@H](Cc1ccccc1)C(N)=O) [0748-09FA]; 1000

Challenge: Retrieve IC50 values (µM), creatine kinase activity assay measured for Ac-GD[O(CA)]GS [CXP5.2-078] and print it.
Response given: 780
